Entry source: patent US20220125891A1

Recorded IC50, phosphorylation by IKKβ for the following binders
- target under test: T1, full-length human Regnase-1 with a FLAG tag on the N-terminal side and a biotin ligase BirA recognition … (human, UniProt Q5D1E8 1-599, biotinylated where required ; Biotinylated at the BirA recognition sequence where required. That sequence is not in the letters.)
- T1 sequence: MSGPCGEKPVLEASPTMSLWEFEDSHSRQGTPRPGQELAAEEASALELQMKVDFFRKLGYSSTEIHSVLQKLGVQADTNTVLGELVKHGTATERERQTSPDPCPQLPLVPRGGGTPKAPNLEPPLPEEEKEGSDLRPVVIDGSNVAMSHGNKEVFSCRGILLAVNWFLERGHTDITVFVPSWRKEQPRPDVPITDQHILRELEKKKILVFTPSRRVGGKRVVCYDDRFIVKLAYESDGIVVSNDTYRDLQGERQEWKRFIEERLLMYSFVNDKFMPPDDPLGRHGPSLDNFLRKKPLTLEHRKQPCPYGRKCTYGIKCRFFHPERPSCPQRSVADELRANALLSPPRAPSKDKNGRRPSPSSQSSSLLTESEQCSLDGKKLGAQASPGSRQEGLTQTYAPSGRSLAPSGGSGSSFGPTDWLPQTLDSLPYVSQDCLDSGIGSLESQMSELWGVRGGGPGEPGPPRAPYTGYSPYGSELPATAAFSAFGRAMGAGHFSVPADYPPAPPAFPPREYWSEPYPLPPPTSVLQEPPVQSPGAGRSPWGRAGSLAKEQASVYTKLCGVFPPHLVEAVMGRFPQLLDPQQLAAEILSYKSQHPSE
- test summary: cell-based or functional assay
Positions of bridges follow the written chain, without caps; N, C: chain ends. Non-standard residues stand in square brackets, D forms with d. No end group written: not given here. NMeA = CN[C@@H](C)C(=O)O; dNMeA = CN[C@H](C)C(=O)O
Please state the figure in µM; there is no need to write the unit.

# example entries with known answers
>>> numeric_readout("[dNMeA]PTSSWYKIWD (lactam N-11) [PP23]")
25.6
>>> numeric_readout("[NMeA]NYQSWYYRSIWD (lactam N-13) [PP10]")
0.5

Request: What does the record list as IC50, phosphorylation by IKKβ for [NMeA]YIWDFFGDLD (lactam N-11) [PP4] ?
Result: 19.5

Request: What does the record list as IC50, phosphorylation by IKKβ for [NMeA]GYANSWYNIWD (lactam N-12) [PP2] ?
Result: 16.6

Request: What does the record list as IC50, phosphorylation by IKKβ for [NMeA]WIWDFWNED (lactam N-10) [PP24] ?
Result: 5.3

Request: What does the record list as IC50, phosphorylation by IKKβ for [NMeA]KFWIHHSFED (lactam N-11) [PP20] ?
Result: 24.7

Request: What does the record list as IC50, phosphorylation by IKKβ for [dNMeA]TYGHSSWYKIWD (lactam N-13) [PP9] ?
Result: 2.7
